TARGET DESC: Cytochrome P450 2D6 (Homo sapiens) (UniProt P10635)
Sequence (P10635 whole entry, looked up): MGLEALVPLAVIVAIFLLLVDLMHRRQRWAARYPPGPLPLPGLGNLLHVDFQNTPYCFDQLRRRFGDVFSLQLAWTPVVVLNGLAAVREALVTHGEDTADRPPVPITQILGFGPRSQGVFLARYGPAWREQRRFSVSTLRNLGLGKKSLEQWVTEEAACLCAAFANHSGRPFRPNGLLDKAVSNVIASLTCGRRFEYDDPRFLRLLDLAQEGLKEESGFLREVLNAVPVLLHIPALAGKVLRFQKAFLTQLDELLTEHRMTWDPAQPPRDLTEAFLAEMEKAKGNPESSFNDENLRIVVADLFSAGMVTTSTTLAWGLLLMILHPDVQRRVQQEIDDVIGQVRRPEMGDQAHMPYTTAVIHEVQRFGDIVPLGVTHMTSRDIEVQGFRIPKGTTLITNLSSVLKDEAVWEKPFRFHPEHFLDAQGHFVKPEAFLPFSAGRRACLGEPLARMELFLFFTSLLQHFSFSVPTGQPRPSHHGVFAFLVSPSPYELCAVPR
ASSAY REMARKS: Cytochrome P450 family 2 subfamily D member 6 (CYP2D6) small molecule antagonists: luciferase biochemical (cell-free) qHTS assay (AID 1645840); note: nearly all actives have a fitted effect of over 55% in size
RUN PARAMETERS: P450-Glo CYP2D6 enzyme, luciferin luminescence, 1 h; series mostly up to 57.4 µM
Records with an inconclusive call do not appear. Active and inactive are the calls of the source. Calls come from the whole dose curve; as a rule, active = well fitted inhibition curve with a large enough effect in the repeat runs; inconclusive = weak or mixed curves; inactive = flat fitted curve, though single readings scatter.
Respond with a class label; see active, inactive

# count of solved cases: 4
{"columns": ["MOLECULE", "TARGET DESC", "ASSIGNED CATEGORY"],
 "data": [
  ["OCc1ccc(Cl)cc1Cl", "Cytochrome P450 2D6 (Homo sapiens) (UniProt P10635)", "inactive"],
  ["NS(=O)(=O)c1ccc(NC(=O)CCC(=O)O)cc1", "Cytochrome P450 2D6 (Homo sapiens) (UniProt P10635)", "inactive"],
  ["CCOc1ccc(C(=O)OCCN(CC)CC)cc1", "Cytochrome P450 2D6 (Homo sapiens) (UniProt P10635)", "active"],
  ["CCOc1cc(NC(C)=O)ccc1C(=O)OC", "Cytochrome P450 2D6 (Homo sapiens) (UniProt P10635)", "inactive"]
]}

**Q:** Which outcome was entered for the molecule Cc1ncc(CO)c(CN)c1O in this test?
**A:** inactive

**Q:** Cool, now COC(=O)c1ccc(O)cc1
**A:** inactive

**Q:** Cool, now NNC(=O)CP(=O)(c1ccccc1)c1ccccc1
**A:** inactive

**Q:** Cool, now Cc1c(C)c2c(c(C)c1OC(=O)c1cccnc1)CC[C@@](C)(CCC[C@H](C)CCC[C@H](C)CCCC(C)C)O2
**A:** inactive
